B1: ANKRD44 (parent)
chain: FHCIETLVTTGANVNETDDWGRTA

Variants of: B1
Test: protein stability index of a GFP-peptide fusion (GPS, HEK-293T) (PSI 1-6); higher = more stable;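 further: lentivirally expressed fusions sorted by FACS into six bins by GFP to DsRed ratio, PSI derived from sequencing read proportions per bin multiplied by bin number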
Settings: c terminus: a fixed tail appended
test_readout: protein stability index

| mutation_key | test_readout | reported_result |
| --- | --- | --- |
| F1H | protein stability index | 4.18 |
| T17A | protein stability index | 1.92 |
| T17V | protein stability index | 2 |
